# measured target: Human BAK-∆TM-His6 (BAK) (Homo sapiens)
# Construct: C-terminus truncated recombinant human BAK containing C-terminal 6× histidine tag (MEAS-BAK); made in house; host or cells: E. coli T7 Express pLac I/Y
# Sequence (Q16611 1-186 limits assumed): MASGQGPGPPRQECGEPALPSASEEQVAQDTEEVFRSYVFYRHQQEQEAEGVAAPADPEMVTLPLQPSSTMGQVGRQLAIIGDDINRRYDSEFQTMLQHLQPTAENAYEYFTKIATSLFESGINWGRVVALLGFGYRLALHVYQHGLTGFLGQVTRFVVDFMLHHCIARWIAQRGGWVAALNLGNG
# procedure text: Liposome permeabilization assay (ANTS/DPX dye release from LUVs): activation of WT BAK by BH3 peptides
# Format: biochemical
# Set-up: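 traces normalized between buffer minimum and 3% CHAPS maximum fluorescence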
# test parameters: 50 μM peptide + 50 nM BAK; AUC 0-88 mins of liposome permeabilization; Experiment-3, mean of N replicates
# From the text: We performed liposome permeabilization assays as previously described[43]–[46]. […] We quantified liposome permabilization by integrating area under curve (AUC) of normalized traces based on the Simpson’s equation, and analyzed that data in Excel and GraphPad Prism. AUC measurements reflect the kinetic and extent of liposome permeabilization and provide quantitative means for comparison between different experimental conditions (e.g., BAK mutants with gross or partial variation in activity).
Could you label it Y if measured AUC for Experiment-3 (Mean) is 8 or higher, and N otherwise?

Solved cases (5 shown):
Ac-EDIIRNIARHLAQMGDSMDRSI-NH2 [M(3)]
Y
Ac-EDIIRNIARHYAQVGDSMDRSI-NH2 [Y(2)]
N
Ac-EDIIRNIARHLAQVGDSWDRSI-NH2 [W(4)]
Y
Ac-EDIWRNIARHLAQVGDSMDRSI-NH2 [W(0')]
Y
Ac-EDIIRNIARHLAQVGDSFDRSI-NH2 [F(4)]
N

Form field: AUC for Experiment-3 (Mean) at least 8? Entry: Ac-EDIIRNWARHLAQVGDSMDRSI-NH2 [W(1)]
N

Form field: AUC for Experiment-3 (Mean) at least 8? Entry: Ac-EDIIRNIARHLAQYGDSMDRSI-NH2 [Y(3)]
Y

Form field: AUC for Experiment-3 (Mean) at least 8? Entry: Ac-EDIIRNIARHMAQVGDSMDRSI-NH2 [M(2)]
N
